assay: Stability in simulated gastric fluid (SGF)
Type: in vitro ADME
assay.setup: simulated gi fluid, pH 1.2
observable: half-life (h)

>>> endpoint_value("CC(=O)OCCN(C)CC(=O)OC(C)(C)C(=O)OCC(=O)O[C@]1(C)CC[C@@]2(C)[C@@H](CC[C@@H]3[C@@H]2CC[C@]2(C)[C@@H](C(C)=O)CC[C@@H]32)C1")
76.6
>>> endpoint_value("CC(=O)[C@H]1CC[C@H]2[C@@H]3CC[C@H]4C[C@](C)(OC(=O)COC(=O)C(C)(C)O)CC[C@]4(C)[C@H]3CC[C@]12C")
6.08

* * *

assay: Mouse plasma stability
Format: in vitro ADME
assay.setup: 2 μg/mL, 37° C., read-out: Mouse plasma Half life (t1/2)
observable: half-life (h)

>>> endpoint_value("CC(=O)[C@H]1CC[C@H]2[C@@H]3CC[C@H]4C[C@](C)(OC(=O)CN)CC[C@]4(C)[C@H]3CC[C@]12C [Compound 111]")
7.43
